- Target Or System: WDR5 (Homo sapiens, UniProt P61964)
- Method Summary: Selectivity panel (Table 3)
- Assay type: binding
Property Measured: IC50 (pM)

[
  {
    "Input Smiles": "Cc1c(F)c(N)cc(C(=O)Nc2cc(-n3cc(C(=O)N4CCN(C)CC4)nn3)c(F)cc2N2C[C@@H](C)N(C)[C@@H](C)C2)c1Cl",
    "Recorded Value": 683
  }
]

----------
- Method Summary: PK profile of HBI-2375 in plasma and brain in C57BL/6J mice
- Assay type: in vivo
- Experimental Context: male, C57BL/6J, mouse, plasma, po, 80 mg/kg, C57BL/6J mice, single PO 80 mg/kg
Property Measured: AUC(0-t) (ng·h/mL)

[
  {
    "Compound": "Cc1c(F)c(N)cc(C(=O)Nc2cc(-n3cc(C(=O)N4CCN(C)CC4)nn3)c(F)cc2N2C[C@@H](C)N(C)[C@@H](C)C2)c1Cl [HYBI-084]",
    "Property Measured": "AUC(0-t)",
    "Recorded Value": 15400
  }
]

----------
- Method Summary: Mouse PK (oral)
- Type: in vivo, C57/B16 mice
- Experimental Context: C57/B16, plasma, 10 mg/kg, 10 mpk

[
  {
    "Compound": "C[C@@H]1CN(c2ncc(-c3cc(Nc4ncnc(Cl)c4N)c(N4CCN(C)[C@@H](C)C4)cc3F)cn2)C[C@H](C)O1 [DDO-2213_023]",
    "AUC(0-t)": "16.4 µM·h"
  },
  {
    "Compound": "CCN(CC)C(=O)c1cn(-c2cc(NC(=O)c3cc(N)c(F)c(C)c3Cl)c(N3C[C@@H](C)N(C)[C@@H](C)C3)cc2F)nn1 [HYBI-082]",
    "AUC(0-t)": "2.22 µM·h"
  },
  {
    "Compound": "C[C@H]1CN(c2cc(F)c(-c3cnc(N4CCOCC4)nc3)cc2Nc2ncnc(Cl)c2N)CCN1C [DDO-2213_020]",
    "AUC(0-t)": "7.1 µM·h"
  },
  {
    "Compound": "Cc1c(F)c(N)cc(C(=O)Nc2cc(-n3cc(C(=O)N4CCN(C)CC4)nn3)c(F)cc2N2C[C@@H](C)N(C)[C@@H](C)C2)c1Cl [HYBI-084]",
    "AUC(0-t)": "1.31 µM·h"
  }
]

----------
- Method Summary: PK profile of HBI-2375 in plasma and brain in C57BL/6J mice
- Assay type: in vivo
- Experimental Context: mouse; C57BL/6J mice, 7-day repeat PO 80 mg/kg, plasma, female
Property Measured: Cmax at 7 day (ng/mL)

[
  {
    "Compound": "Cc1c(F)c(N)cc(C(=O)Nc2cc(-n3cc(C(=O)N4CCN(C)CC4)nn3)c(F)cc2N2C[C@@H](C)N(C)[C@@H](C)C2)c1Cl [HYBI-084]",
    "Property Measured": "Cmax at 7 day",
    "Recorded Value": 2840
  }
]

----------
- Method Summary: PK profile of HBI-2375 in plasma, brain and CSF in SD rats
- Format: in vivo
- Experimental Context: rat; SD rats, single PO 40 mg/kg, brain, male; read-out: Tmax

[
  {
    "Compound": "Cc1c(F)c(N)cc(C(=O)Nc2cc(-n3cc(C(=O)N4CCN(C)CC4)nn3)c(F)cc2N2C[C@@H](C)N(C)[C@@H](C)C2)c1Cl [HYBI-084]",
    "Tmax [min]": 15
  }
]

----------
- Method Summary: Mouse PK (oral)
- Assay type: in vivo, C57/B16 mice
- Experimental Context: 10 mpk
Reported F values for the following compounds.
Property Measured: F (%)

[
  {
    "Compound": "C[C@H]1CN(c2cc(F)c(-c3cnc(N4CCOCC4)nc3)cc2Nc2ncnc(Cl)c2N)CCN1C [DDO-2213_020]",
    "Property Measured": "F",
    "Units Of Measure": "%",
    "Recorded Value": 61.5
  },
  {
    "Compound": "CCN(CC)C(=O)c1cn(-c2cc(NC(=O)c3cc(N)c(F)c(C)c3Cl)c(N3C[C@@H](C)N(C)[C@@H](C)C3)cc2F)nn1 [HYBI-082]",
    "Property Measured": "F",
    "Units Of Measure": "%",
    "Recorded Value": 23.3
  },
  {
    "Compound": "C[C@@H]1CN(c2ncc(-c3cc(Nc4ncnc(Cl)c4N)c(N4CCN(C)[C@@H](C)C4)cc3F)cn2)C[C@H](C)O1 [DDO-2213_023]",
    "Property Measured": "F",
    "Units Of Measure": "%",
    "Recorded Value": 82.5
  },
  {
    "Compound": "Cc1c(F)c(N)cc(C(=O)Nc2cc(-n3cc(C(=O)N4CCN(C)CC4)nn3)c(F)cc2N2C[C@@H](C)N(C)[C@@H](C)C2)c1Cl [HYBI-084]",
    "Property Measured": "F",
    "Units Of Measure": "%",
    "Recorded Value": 26.3
  }
]

----------
- Target Or System: PTP1B (Homo sapiens, UniProt P18031)
- Sequence (P18031 whole entry, species assumed): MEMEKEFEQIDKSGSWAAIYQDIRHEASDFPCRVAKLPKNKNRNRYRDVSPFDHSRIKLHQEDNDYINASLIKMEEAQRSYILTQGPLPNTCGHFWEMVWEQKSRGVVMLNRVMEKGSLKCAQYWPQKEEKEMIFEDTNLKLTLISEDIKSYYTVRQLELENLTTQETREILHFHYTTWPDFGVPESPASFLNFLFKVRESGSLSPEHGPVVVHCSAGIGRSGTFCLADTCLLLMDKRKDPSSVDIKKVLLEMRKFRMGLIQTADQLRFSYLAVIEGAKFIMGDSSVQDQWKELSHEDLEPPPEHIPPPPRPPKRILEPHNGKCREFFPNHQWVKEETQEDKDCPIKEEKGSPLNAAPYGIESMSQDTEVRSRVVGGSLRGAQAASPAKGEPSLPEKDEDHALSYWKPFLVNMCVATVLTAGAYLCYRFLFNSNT

[
  {
    "Input Smiles": "Cc1c(F)c(N)cc(C(=O)Nc2cc(-n3cc(C(=O)N4CCN(C)CC4)nn3)c(F)cc2N2C[C@@H](C)N(C)[C@@H](C)C2)c1Cl",
    "IC50": "> 1 µM"
  }
]

----------
- Method Summary: PK profile of HBI-2375 in plasma and brain in C57BL/6J mice
- Assay type: in vivo
- Experimental Context: both sexes, mouse; C57BL/6J mice, 7-day repeat PO 80 mg/kg, brain, mean

[
  {
    "Input Smiles": "Cc1c(F)c(N)cc(C(=O)Nc2cc(-n3cc(C(=O)N4CCN(C)CC4)nn3)c(F)cc2N2C[C@@H](C)N(C)[C@@H](C)C2)c1Cl",
    "Cmax at 7 day, ng/g": 807
  }
]

----------
- Method Summary: PK profile of HBI-2375 in plasma, brain and CSF in SD rats
- Format: in vivo
- Experimental Context: rat; SD rats, single PO 40 mg/kg, plasma, male; read-out: Tmax
Property Measured: Tmax (min)

[
  {
    "Input Smiles": "Cc1c(F)c(N)cc(C(=O)Nc2cc(-n3cc(C(=O)N4CCN(C)CC4)nn3)c(F)cc2N2C[C@@H](C)N(C)[C@@H](C)C2)c1Cl",
    "Units Of Measure": "min",
    "Recorded Value": 15
  }
]

----------
- Method Summary: PK profile of HBI-2375 in plasma, brain and CSF in SD rats
- Assay type: in vivo
- Experimental Context: Sprague-Dawley, rat; SD rats, single PO 40 mg/kg, CSF, male
Property Measured: Cmax (ng/mL)

[
  {
    "Compound": "Cc1c(F)c(N)cc(C(=O)Nc2cc(-n3cc(C(=O)N4CCN(C)CC4)nn3)c(F)cc2N2C[C@@H](C)N(C)[C@@H](C)C2)c1Cl [HYBI-084]",
    "Recorded Value": 7.48
  }
]

----------
Listing: Remaining % (Day 4) of selected molecules
- Method Summary: Compound formulation stability assay
- Format: physicochemical
- Experimental Context: 10 mg/mL in 10% DMSO/10% solutol HS 15/80% water, 2-8° C., Day 4

[
  {
    "Input Smiles": "Cc1c(F)c(N)cc(C(=O)Nc2cc(-n3cc(C(=O)N4CCN(C)CC4)nn3)c(F)cc2N2C[C@@H](C)N(C)[C@@H](C)C2)c1Cl",
    "Units Of Measure": "%",
    "Remaining % (Day 4)": 100
  },
  {
    "Input Smiles": "C[C@H]1CN(c2cc(F)c(-c3cnc(N4CCOCC4)nc3)cc2Nc2ncnc(Cl)c2N)CCN1C",
    "Units Of Measure": "%",
    "Remaining % (Day 4)": 100
  },
  {
    "Input Smiles": "CCN(CC)C(=O)c1cn(-c2cc(NC(=O)c3cc(N)c(F)c(C)c3Cl)c(N3C[C@@H](C)N(C)[C@@H](C)C3)cc2F)nn1",
    "Units Of Measure": "%",
    "Remaining % (Day 4)": 103
  },
  {
    "Input Smiles": "C[C@@H]1CN(c2ncc(-c3cc(Nc4ncnc(Cl)c4N)c(N4CCN(C)[C@@H](C)C4)cc3F)cn2)C[C@H](C)O1",
    "Units Of Measure": "%",
    "Remaining % (Day 4)": 100
  }
]

----------
- Method Summary: PK profile of HBI-2375 in plasma, brain and CSF in SD rats
- Assay type: in vivo
- Experimental Context: Sprague-Dawley, rat; SD rats, single PO 40 mg/kg, plasma, male

[
  {
    "Input Smiles": "Cc1c(F)c(N)cc(C(=O)Nc2cc(-n3cc(C(=O)N4CCN(C)CC4)nn3)c(F)cc2N2C[C@@H](C)N(C)[C@@H](C)C2)c1Cl",
    "Units Of Measure": "ng/mL",
    "Cmax": 544
  }
]
